Where these numbers come from: patent US12102640B2

System: P23H rat RGCs
TEST_NAME: Light sensitivity (intensity-response functions) of RGCs in isolated P23H rat retina, extracellular recording
Assay type: cell-based
EXPERIMENTAL_CONDITIONS: difference of means before vs during drug; P23H rat RGCs
PROPERTY_LABEL: average lowering of light intensity (increase in light sensitivity)

> print(dat)
                                   compound  target.entity  reported.result
1  CCN1CCCC1CNC(=O)c1cc(S(=O)(=O)CC)c(N)cc1OC (stereo not drawn) [amisulpride]  P23H rat RGCs    0.39 log unit

Shift focus to the following entry.
### Prompt May I ask what average lowering of light intensity (increase in light sensitivity) has been recorded for Cl.Cl.Cl.Clc1ccc(N2CCN(Cc3c[nH]c4ncccc34)CC2)cc1 [L-745,870] ?
### Response 0.21 log unit

---

Test system: P23H rat RGCs
TEST_NAME: Light sensitivity (intensity-response functions) of RGCs in isolated P23H rat retina, extracellular recording
Assay type: cell-based
EXPERIMENTAL_CONDITIONS: P23H rat RGCs; one cell per retina
PROPERTY_LABEL: number of RGCs tested whose sensitivity was increased

> print(dat)
                                   molecule  target.entity  reported.result
1  O=C(CCCN1CCC(O)(c2ccc(Cl)cc2)CC1)c1ccc(F)cc1 [haloperidol]  P23H rat RGCs            all 4
2  CCN1CCCC1CNC(=O)c1cc(S(=O)(=O)CC)c(N)cc1OC (stereo not shown) [amisulpride]  P23H rat RGCs            all 5
3  Cl.Cl.Cl.Clc1ccc(N2CCN(Cc3c[nH]c4ncccc34)CC2)cc1 [L-745,870]  P23H rat RGCs     11 of the 12
4  CCN1CCC[C@H]1CNC(=O)c1cc(S(N)(=O)=O)ccc1OC [sulpiride, (−)-Sulpiride]  P23H rat RGCs       8 of the 9

---

Reported average lowering of light intensity (increase in light sensitivity) values for the following compounds.
System: P23H rat RGCs
TEST_NAME: Light sensitivity (intensity-response functions) of RGCs in isolated P23H rat retina, extracellular recording
Format: cell-based
EXPERIMENTAL_CONDITIONS: difference of means before vs during drug; P23H rat RGCs
Method: P23H-line 1 homozygous rats (age range 22-37 weeks) were used. Breeding pairs of P23H-line 1 homozygous rats were generously donated by Dr. Matthew LaVail (University of California San Francisco, CA). The room light was kept on a 12 hr light/dark cycle using standard fluorescent lighting. During the light cycle, the illumination at the level of the cages was 100-200 lux. […] Electrical Recording: Action potentials (spikes) were recorded extracellularly from individual RGCs. […]
Kindly provide the numeric value in log unit only, without the unit symbol.

Use these answered entries as a reference point.
> print(dat)
                                   compound  reported.result
1  CCN1CCC[C@H]1CNC(=O)c1cc(S(N)(=O)=O)ccc1OC [sulpiride, (−)-Sulpiride]             0.29
2     CN1CCN(C2=Nc3cc(Cl)ccc3Nc3ccccc32)CC1             0.30
3  O=C1CCc2ccc(OCCCCN3CCN(c4cccc(Cl)c4Cl)CC3)cc2N1             0.27

### Prompt Quick check: average lowering of light intensity (increase in light sensitivity) on P23H rat RGCs, item `O=C(CCCN1CCC(O)(c2ccc(Cl)cc2)CC1)c1ccc(F)cc1` ?
### Response 0.28
